B1: Osa-1-4 twister ribozyme (parent)
chain: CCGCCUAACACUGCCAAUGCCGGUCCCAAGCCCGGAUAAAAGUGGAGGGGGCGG

variants of: B1; experiment: self-cleavage, relative activity (ratio to wild type); higher = more cleavage; co-transcriptional
// values below are reported self-cleavage
Please give only the number in your answer, with no unit.

1) C27A U18G ... 0.34
2) A16U G45U ... 0.1
3) A29U G34A ... 0.07
4) A28U U24A ... 0.08
5) C21U G42U ... 0.09

Sure, the documented self-cleavage for G13A U18G is 0.24

Sure, the documented self-cleavage for G34C G47A is 0.07

Sure, the documented self-cleavage for A40G G30C is 0.04

Sure, the documented self-cleavage for A10C G42U is 0.01

Sure, the documented self-cleavage for A39C C11U is 0.74

Sure, the documented self-cleavage for C15G U18A is 0.48

Sure, the documented self-cleavage for A40U G13U is 0.01

Sure, the documented self-cleavage for A36U G47C is 0.13

Sure, the documented self-cleavage for C20G C32U is 0.03

Sure, the documented self-cleavage for A10U A16C is 0.03

Sure, the documented self-cleavage for C25U G22A is 0.74

Sure, the documented self-cleavage for A38G G44C is 0.98

Sure, the documented self-cleavage for C33U G35U is 0.11

Sure, the documented self-cleavage for C15G G42C is 0.08

Sure, the documented self-cleavage for G30A G35C is 0.03
